Would you mind telling me the reported % inhibition of A2.1-binding of M1 (58-66) of each entry?
- tested target: HLA-A2.1 (human, UniProt A*02:01)
- measurement description: competition on EA2 cells: test peptide (100 mM [sic]) vs M1 58-66 (1 mM [sic]); % inhibition of CTL clone 12 lysis, E:T 0.3:1
One number for each entry, in %.

Recorded results for 8 binders are shown here.
{"binder": "DLMLSPDDI [hu-wt-p53 42-50]", "unit of measurement": "%", "result value": 19}
{"binder": "RLGILHSGTA [hu-wt-p53 110-119]", "unit of measurement": "%", "result value": 10}
{"binder": "PLDGEYFTL (also called hu-p53.322-330) [hu-wt-p53 322-330]", "unit of measurement": "%", "result value": 24}
{"binder": "STPPPGTRV [p53.149-157]", "unit of measurement": "%", "result value": 29}
{"binder": "AIYKQSQHM [hu-wt-p53 161-169]", "unit of measurement": "%", "result value": 12}
{"binder": "AAPPVAPAPA [hu-wt-p53 69-78]", "unit of measurement": "%", "result value": 41}
{"binder": "VAPAPAAPT [hu-wt-p53 73-81]", "unit of measurement": "%", "result value": 12}
{"binder": "LLPENNVLS [hu-wt-p53 25-33]", "unit of measurement": "%", "result value": 42}

Hey, can you go through the list below and give me % inhibition of A2.1-binding of M1 (58-66) for every item?
1. NLLGRNSFEV [hu-wt-p53 263-272]
2. QLAKTCPVQ [hu-wt-p53 136-144]
3. LLPENNVLSPL (also called hu-wt-p53 25-35; hu-p53.25-35) [p53.25-35]
4. AAPPVAPA [hu-wt-p53 69-76]

1. 50
2. 15
3. 65
4. 46

Hey, can you go through the list below and give me % inhibition of A2.1-binding of M1 (58-66) for every item?
1. GLAPPQHLI [hu-wt-p53 187-195]
2. AAPTPAAPA [hu-wt-p53 78-86]
3. LLGRDSFEV (also called mur-p53.261-269) [mur-wt-p53 261-269]

1: 62; 2: 51; 3: 75

Would you kindly share the measured % inhibition of A2.1-binding of M1 (58-66) for VTCTYSPAL [hu-wt-p53 122-130] ?
12
